Numbers sourced from patent EP4745135A1.

- tested system: human Cereblon WT GST-tagged protein (Homo sapiens, UniProt Q96SW2)
- Construct: purchased CISBIO 64BDCRBNPEH
- Sequence (Q96SW2 whole entry): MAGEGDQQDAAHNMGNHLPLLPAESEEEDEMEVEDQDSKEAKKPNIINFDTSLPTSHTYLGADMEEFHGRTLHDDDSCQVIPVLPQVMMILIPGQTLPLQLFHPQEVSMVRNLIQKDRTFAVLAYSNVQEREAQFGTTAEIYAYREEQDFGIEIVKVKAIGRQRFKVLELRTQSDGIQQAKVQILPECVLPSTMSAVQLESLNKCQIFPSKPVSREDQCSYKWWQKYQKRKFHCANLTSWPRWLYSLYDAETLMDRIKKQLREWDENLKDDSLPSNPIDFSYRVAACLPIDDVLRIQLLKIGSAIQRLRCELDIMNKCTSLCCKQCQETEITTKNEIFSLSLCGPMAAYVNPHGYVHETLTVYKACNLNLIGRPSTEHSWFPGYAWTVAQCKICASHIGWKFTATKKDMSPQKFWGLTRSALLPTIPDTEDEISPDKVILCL
- protocol: CRBN-binding affinity, HTRF (CEREBLON BINDING kit)
- assay setup: read-out: Inhibition Rate at 0.5 µM (%)
endpoint label: inhibition at 0.5 µM

Reference set (5 entries):
[[record]]
compound = "CC1(C)CC(c2ccc(Cl)cc2)=C(CN2CCN(Cc3ccc4c(c3)CN(C3CCC(=O)NC3=O)C4=S)CC2)CO1 (stereo not shown) [GT-08167]"
endpoint_label = "inhibition at 0.5 µM"
value_measured = "40 to 53%"

[[record]]
compound = "O=C1CCC(N2Cc3cc(CN4CC=C(c5ccnc(Cl)c5Cl)CC4)ccc3C2=S)C(=O)N1 (stereo not shown) [GT-08482]"
endpoint_label = "inhibition at 0.5 µM"
value_measured = "60 to 80%"

[[record]]
compound = "O=C1CCC(N2Cc3c(CN4CC(C5CCOc6cc(F)ccc65)C4)cccc3C2=S)C(=O)N1 (stereo not shown) [GT-08859]"
endpoint_label = "inhibition at 0.5 µM"
value_measured = "53 to 60%"

[[record]]
compound = "O=C1CCC(N2Cc3cc(CN4CCC(N(c5ccccc5)c5ccccn5)CC4)ccc3C2=S)C(=O)N1 (stereo not shown) [GT-07846]"
endpoint_label = "inhibition at 0.5 µM"
value_measured = "53 to 60%"

[[record]]
compound = "O=C1CCC(N2Cc3cc(CN4CCC(N5CCOc6cc(F)ccc65)CC4)ccc3C2=S)C(=O)N1 (stereo not shown) [GT-09272]"
endpoint_label = "inhibition at 0.5 µM"
value_measured = "60 to 80%"


Lab note: each compound below needs its inhibition at 0.5 µM filled in.
1. Cc1csc2ncnc(N3CCN(Cc4ccc5c(c4)CN(C4CCC(=O)NC4=O)C5=S)CC3)c12 (stereo not shown) [GT-09281]
2. O=C1CCC(N2Cc3cc(CN4C5CCC4CN(C(c4ccccc4)c4ccccc4)C5)ccc3C2=S)C(=O)N1 (stereo not shown) [GT-07850]
3. O=C1CCC(N2Cc3cc(CN4CCN(c5cnccn5)CC4)ccc3C2=S)C(=O)N1 (stereo not shown) [GT-09253]
4. O=C1CCC(N2Cc3c(CN4CC=C(c5ncccc5F)CC4)cccc3C2=S)C(=O)N1 (stereo not shown) [GT-08463]
5. Cc1sc2ncnc(C3=CCN(Cc4cccc5c4CN(C4CCC(=O)NC4=O)C5=S)CC3)c2c1C (stereo not shown) [GT-08955]
6. O=C1CCC(N2Cc3c(CN4C5CCC4CN(C(c4ccccc4)c4ccccc4)C5)cccc3C2=S)C(=O)N1 (stereo not shown) [GT-08235]

Result:
80 to 100%
40 to 53%
60 to 80%
53 to 60%
40 to 53%
40 to 53%

Lab note: each compound below needs its inhibition at 0.5 µM filled in.
1. O=C1CCC(N2Cc3c(CN4CC=C(c5cncc(Cl)c5Cl)CC4)cccc3C2=S)C(=O)N1 (stereo not shown) [GT-08460]
2. O=C1CCC(N2Cc3cc(CN4CCN(c5ccncc5F)CC4)ccc3C2=S)C(=O)N1 (stereo not shown) [GT-09237]
3. O=C1CCC(N2Cc3c(CN4CCN(c5ccc(Cl)cc5Cl)CC4)cccc3C2=S)C(=O)N1 (stereo not shown) [GT-08500]
4. O=C1CCC(N2Cc3cc(CN4CCN(CC5=C(c6ccc(F)cc6)CCCC5)CC4)ccc3C2=S)C(=O)N1 (stereo not shown) [GT-08164]
5. O=C1CCC(N2Cc3cc(CN4CCN(c5ccc(Cl)nc5)CC4)ccc3C2=S)C(=O)N1 (stereo not shown) [GT-09230]
6. O=C1CCC(N2Cc3cc(CN4CCC(c5ccc(F)cc5)CC4)ccc3C2=S)C(=O)N1 (stereo not shown) [GT-08621]
7. Cc1nc(C2=CCN(Cc3cccc4c3CN(C3CCC(=O)NC3=O)C4=S)CC2)c2c3c(sc2n1)CCCC3 (stereo not shown) [GT-08961]

Result:
1. 60 to 80%
2. 60 to 80%
3. 40 to 53%
4. 40 to 53%
5. 60 to 80%
6. 53 to 60%
7. 40 to 53%

Lab note: each compound below needs its inhibition at 0.5 µM filled in.
1. O=C1CCC(N2Cc3cc(CN4CCN(c5ccnc(Cl)c5Br)CC4)ccc3C2=S)C(=O)N1 (stereo not shown) [GT-09240]
2. O=C1CCC(N2Cc3c(CN4CCN(c5c[nH]c6ncccc56)CC4)cccc3C2=S)C(=O)N1 (stereo not shown) [GT-08841]
3. O=C1CCC(N2Cc3cc(CN4CCC(c5cccc6c(F)cccc56)CC4)ccc3C2=S)C(=O)N1 (stereo not shown) [GT-09275]
4. O=C1CCC(N2Cc3cc(CN4CC=C(c5cncc(Cl)c5Cl)CC4)ccc3C2=S)C(=O)N1 (stereo not shown) [GT-08489]

Result:
80 to 100%
60 to 80%
30 to 40%
60 to 80%

Lab note: each compound below needs its inhibition at 0.5 µM filled in.
1. Cc1cccc(N2CCN(Cc3cccc4c3CN(C3CCC(=O)NC3=O)C4=S)CC2)n1 (stereo not shown) [GT-08692]
2. O=C1CCC(N2Cc3cc(CN4CCC(c5nccc(Cl)c5Cl)CC4)ccc3C2=S)C(=O)N1 (stereo not shown) [GT-08488]
3. O=C1CCC(N2Cc3cc(CN4CCN(c5ccncc5)CC4)ccc3C2=S)C(=O)N1 (stereo not shown) [GT-09233]
4. O=C1CCC(N2Cc3cc(CN4CCC(C5CCOc6cc(F)ccc65)CC4)ccc3C2=S)C(=O)N1 (stereo not shown) [GT-09274]
5. CC1(C)CC(c2ccc(Cl)cc2)=C(CN2CCN(Cc3cccc4c3CN(C3CCC(=O)NC3=O)C4=S)CC2)CO1 (stereo not shown) [GT-08296]
6. O=C1CCC(N2Cc3cc(CN4CCN(C(c5ccccn5)c5ccccn5)CC4)ccc3C2=S)C(=O)N1 (stereo not shown) [GT-07734]
7. O=C1CCC(N2Cc3c(CN4CCC(c5ccnc6cc(F)ccc56)CC4)cccc3C2=S)C(=O)N1 (stereo not shown) [GT-08858]

Result:
1. 53 to 60%
2. 60 to 80%
3. 60 to 80%
4. 60 to 80%
5. 40 to 53%
6. 60 to 80%
7. 60 to 80%

Lab note: each compound below needs its inhibition at 0.5 µM filled in.
1. O=C1CCC(N2Cc3c(CN4CCN(c5ncnc6sc(-c7ccccc7)cc56)CC4)cccc3C2=S)C(=O)N1 (stereo not shown) [GT-08919]
2. O=C1CCC(N2Cc3c(CN4C[C@@H]5C[C@H]4CN5C(c4ccccc4)c4ccccc4)cccc3C2=S)C(=O)N1 (stereo partly shown) [GT-08207]

Result:
20 to 30%
40 to 53%

###

Hi there, I'd appreciate the recorded inhibition at 0.5 µM for every entry that follows.
- tested system: human Cereblon WT GST-tagged protein (Homo sapiens, UniProt Q96SW2)
- Construct: purchased CISBIO 64BDCRBNPEH
- protocol: CRBN-binding affinity, HTRF (CEREBLON BINDING kit)
- assay setup: read-out: Inhibition Rate at 0.5 µM (%)

[[record]]
compound = "O=C1CCC(N2Cc3cc(CN4CCN(C(c5ccc(F)cc5)c5ccc(F)cc5)CC4)ccc3C2=S)C(=O)N1 (centres unmarked)"
tested_system = "human Cereblon WT GST-tagged protein (Homo sapiens, UniProt Q96SW2)"
value_measured = "20 to 30%"

[[record]]
compound = "O=C1CCC(N2Cc3c(CN4CCN(c5ncc(Cl)cc5Cl)CC4)cccc3C2=S)C(=O)N1 (centres unmarked)"
tested_system = "human Cereblon WT GST-tagged protein (Homo sapiens, UniProt Q96SW2)"
value_measured = "53 to 60%"

[[record]]
compound = "O=C1CCC(N2Cc3c(CN4CCN(c5nc(Cl)nc6c5SCC6)CC4)cccc3C2=S)C(=O)N1 (centres unmarked)"
tested_system = "human Cereblon WT GST-tagged protein (Homo sapiens, UniProt Q96SW2)"
value_measured = "80 to 100%"


Lab note: each compound below needs its inhibition at 0.5 µM filled in.
1. COc1cccc(N2CCN(Cc3cccc4c3CN(C3CCC(=O)NC3=O)C4=S)CC2)c1 (centres unmarked)
2. O=C1CCC(N2Cc3cc(CN4CCC(c5ccnc(Cl)c5Cl)CC4)ccc3C2=S)C(=O)N1 (centres unmarked)
3. O=C1CCC(N2Cc3c(CN4CC=C(c5ncc6ccsc6n5)CC4)cccc3C2=S)C(=O)N1 (centres unmarked)
4. O=C1CCC(N2Cc3c(CN4CCN(c5noc6cc(F)ccc56)CC4)cccc3C2=S)C(=O)N1 (centres unmarked)
5. O=C1CCC(N2Cc3cc(CN4CCN(c5ncccc5C(F)(F)F)CC4)ccc3C2=S)C(=O)N1 (centres unmarked)

Result:
60 to 80%
60 to 80%
80 to 100%
53 to 60%
60 to 80%

###

Hi there, I'd appreciate the recorded inhibition at 0.5 µM for every entry that follows.
- System: Human monocytic leukemia cell line: THP-1
- protocol: Tumor cell proliferation inhibition (CellTiter-Meiluncell luminescent cell viability assay)
- assay setup: THP-1, 96 h, read-out: Inhibition Rate at 500 nM (%)

[[record]]
molecule = "O=C1CCC(N2Cc3cc(CN4CC=C(c5ncnc6sc7c(c56)CCCC7)CC4)ccc3C2=S)C(=O)N1 (centres unmarked)"
value_measured = "80 to 100%"

[[record]]
molecule = "Nc1cccc2c1CN(C1CCC(=O)NC1=O)C2=O (centres unmarked) [lenalidomide, reference compound]"
value_measured = "5 to 10%"

[[record]]
molecule = "O=C1CCC(N2Cc3cc(CN4CC=C(c5ncc6ccsc6n5)CC4)ccc3C2=S)C(=O)N1 (centres unmarked)"
value_measured = "80 to 100%"


Lab note: each molecule below needs its inhibition at 0.5 µM filled in.
1. O=C1CCC(N2Cc3cc(CN4CC=C(c5ncnc6sc7c(c56)CCC7)CC4)ccc3C2=S)C(=O)N1 (centres unmarked)
2. Cc1nc(C2=CCN(Cc3ccc4c(c3)CN(C3CCC(=O)NC3=O)C4=S)CC2)c2ccsc2n1 (centres unmarked)
3. Cc1cc2c(C3=CCN(Cc4ccc5c(c4)CN(C4CCC(=O)NC4=O)C5=S)CC3)ncnc2s1 (centres unmarked)
4. CC(C)c1cc2c(C3=CCN(Cc4ccc5c(c4)CN(C4CCC(=O)NC4=O)C5=S)CC3)ncnc2s1 (centres unmarked)
5. Nc1cccc2c1C(=O)N(C1CCC(=O)NC1=O)C2=O (centres unmarked) [pomalidomide, reference compound]
6. Cc1sc2ncnc(C3=CCN(Cc4ccc5c(c4)CN(C4CCC(=O)NC4=O)C5=S)CC3)c2c1C (centres unmarked)

Result:
1: 80 to 100%; 2: 80 to 100%; 3: 80 to 100%; 4: 100 to 110%; 5: 10 to 20%; 6: 80 to 100%

Lab note: each molecule below needs its inhibition at 0.5 µM filled in.
1. O=C1CCC(N2Cc3cc(CN4CC=C(c5ncnc6sc(-c7ccccc7)cc56)CC4)ccc3C2=S)C(=O)N1 (centres unmarked)
2. O=C1CCC(N2Cc3cc(CN4CC=C(c5ncnc6sccc56)CC4)ccc3C2=S)C(=O)N1 (centres unmarked)

Result:
1. 80 to 100%
2. 80 to 100%
